We begin with a simple list: items and their reported Ki.
Target: c-Met (Homo sapiens, UniProt P08581)
Sequence (P08581 25-1390): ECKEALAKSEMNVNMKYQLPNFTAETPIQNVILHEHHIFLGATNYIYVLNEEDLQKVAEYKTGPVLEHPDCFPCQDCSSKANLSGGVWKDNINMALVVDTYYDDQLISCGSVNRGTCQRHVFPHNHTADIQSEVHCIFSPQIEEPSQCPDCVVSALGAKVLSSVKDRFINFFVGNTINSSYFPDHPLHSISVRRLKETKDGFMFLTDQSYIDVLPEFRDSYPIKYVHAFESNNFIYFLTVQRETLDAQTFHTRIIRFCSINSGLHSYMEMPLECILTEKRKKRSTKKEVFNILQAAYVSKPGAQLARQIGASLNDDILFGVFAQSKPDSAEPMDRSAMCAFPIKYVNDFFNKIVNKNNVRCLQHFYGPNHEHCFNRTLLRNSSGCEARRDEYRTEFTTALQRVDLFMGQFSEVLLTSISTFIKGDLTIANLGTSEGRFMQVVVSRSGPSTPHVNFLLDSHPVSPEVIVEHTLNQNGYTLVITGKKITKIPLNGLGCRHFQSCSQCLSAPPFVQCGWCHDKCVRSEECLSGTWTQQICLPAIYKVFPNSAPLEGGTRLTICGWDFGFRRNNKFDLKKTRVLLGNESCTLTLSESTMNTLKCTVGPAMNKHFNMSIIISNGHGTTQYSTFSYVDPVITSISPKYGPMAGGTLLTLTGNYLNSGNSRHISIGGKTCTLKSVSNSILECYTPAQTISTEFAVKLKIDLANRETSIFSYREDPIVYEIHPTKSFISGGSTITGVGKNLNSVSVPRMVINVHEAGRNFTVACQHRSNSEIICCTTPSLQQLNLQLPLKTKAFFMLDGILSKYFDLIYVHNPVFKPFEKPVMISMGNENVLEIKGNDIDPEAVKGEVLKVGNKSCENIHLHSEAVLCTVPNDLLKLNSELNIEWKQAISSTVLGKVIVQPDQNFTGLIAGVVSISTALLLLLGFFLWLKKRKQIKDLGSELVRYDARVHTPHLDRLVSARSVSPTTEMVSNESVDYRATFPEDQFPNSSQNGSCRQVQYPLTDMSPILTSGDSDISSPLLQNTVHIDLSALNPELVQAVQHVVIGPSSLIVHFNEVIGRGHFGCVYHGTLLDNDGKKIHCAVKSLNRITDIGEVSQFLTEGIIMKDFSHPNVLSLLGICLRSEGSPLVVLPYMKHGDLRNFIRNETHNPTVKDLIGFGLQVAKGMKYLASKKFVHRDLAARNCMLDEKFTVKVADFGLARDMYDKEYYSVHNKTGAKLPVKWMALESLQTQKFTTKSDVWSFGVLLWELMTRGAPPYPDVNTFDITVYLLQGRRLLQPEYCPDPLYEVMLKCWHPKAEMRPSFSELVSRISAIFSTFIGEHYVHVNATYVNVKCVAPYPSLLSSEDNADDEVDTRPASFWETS
Test: Ki determination for the inhibition of c-Met kinase activity (standard coupled enzyme system)
Format: biochemical
Details: coupled enzyme system, 200 μM ATP, 10 μM polyGluTyr, 80 nM c-Met, 30° C.; read-out: c-Met Ki

[
  {
    "MOLECULE": "Oc1ccc(Cc2nnc3ccc(NC4CCN(Cc5ccccc5)C4)nn23)cc1 (stereo not drawn) [Compound 273]",
    "Ki": "100 to 2000 nM"
  },
  {
    "MOLECULE": "Oc1ccc(Cc2nnc3sc(Nc4cc(Cl)cc(Cl)c4)nn23)cc1 [Compound 50]",
    "Ki": "< 100 nM"
  },
  {
    "MOLECULE": "COc1ccc(Cc2nnc3sc(C4CCCCN4)nn23)cc1 (stereo not drawn) [Compound 24]",
    "Ki": "> 2000 nM"
  },
  {
    "MOLECULE": "Oc1ccc(Cc2nnc3ccc(NCC4CCCCC4)nn23)cc1 [Compound 195]",
    "Ki": "100 to 2000 nM"
  },
  {
    "MOLECULE": "NC(=O)[C@H]1CCC[C@H]1Nc1ccc2nnc(Cc3ccc(O)cc3)n2n1 [Compound 203]",
    "Ki": "> 2000 nM"
  },
  {
    "MOLECULE": "Oc1ccc(Cc2nnc3ccc(NCC4CCCO4)nn23)cc1 (stereo not drawn) [Compound 187]",
    "Ki": "100 to 2000 nM"
  },
  {
    "MOLECULE": "COc1cccc(Nc2nn3c(C(C)c4ccc(O)cc4)nnc3s2)c1 (stereo not drawn) [Compound 37]",
    "Ki": "< 100 nM"
  },
  {
    "MOLECULE": "Oc1ccc(Cc2nnc3ccc(NCc4ccccc4)nn23)cc1 [Compound 277]",
    "Ki": "100 to 2000 nM"
  },
  {
    "MOLECULE": "C[C@@H](c1ccc(O)cc1)c1nnc2sc(Nc3ccc(F)c(Cl)c3)nn12 [Compound 159]",
    "Ki": "< 100 nM"
  }
]
